molecular target: influenza virus X-31 hemagglutinin (HA) (Influenza A virus X-31 (H3N2; HA of …, UniProt P03437, strain)
property: binding result

3A5 (VHH) VHH: EVQLVESGGGLVKPGGSLRLSCAASGFIFSDYYMSWIRQAPGKGLEWISYISSSGDSIYYADSVKGRFTISRDDAKNSLSLQMNSLRAEDTAVYYCARGWFGESHYSDFWGQGTLVTVSS	binds
3A6 (VHH) VHH: EVQLVESGGGLVKPGGSLRLSCAASGFTFSDYYMSWIRQAPGKGLEWVSYISGSGNTIYYADSVKGRFTISRDNAKNSLYLQMNSLRAEDTAVYYCARDRLGMDRPLHYWGQGTLVTVSS	binds

These entries and their values trace back to paper PMC5165034.
